- Test system: human lung cancer strain NCI-H441
- Type: cell-based
- Procedure: A test compound was dispensed into a U-bottom 384-well plate as 40 nL serially diluted dimethyl sulfoxide solutions using a liquid handler Echo (LABCYTE). […] This cell suspension was dispensed in an amount of 40 µL per well into a plate containing the test compound, and cultured at 37°C in a 5% carbon dioxide gas incubator. Four days later, 20 µL of CellTiter-Glo (registered trademark) (Promega) was added to each well and […] was measured. […]
For each record, check the reported IC50: if it is below 8 nM write Satisfied, else write Not satisfied.

Strictly below 8 nM: is that where IC50 of `CCO[C@@H]1C[C@H]2C(=O)NC3(CCC3)C(=O)N(C)[C@@H](C3CCCC3)C(=O)N(C)[C@H](C(=O)N(C)C)CC(=O)N(C)[C@@H](CC3CC3)C(=O)N[C@@H]([C@@H](C)CC)C(=O)N(C)CC(=O)N(C)[C@H]3C/C=C\CCN(C3=O)[C@@H](Cc3ccc(C(F)(F)F)cc3)C(=O)N(C)CC(=O)N[C@@H](CCc3cc(F)c(C(F)(F)F)c(F)c3)C(=O)N2C1` sits? Not satisfied

Now consider `CC[C@H](C)[C@@H]1NC(=O)[C@H](CC)N(C)C(=O)C[C@@H](C(=O)N(C)CC)N(C)C(=O)[C@H](C2CCCC2)N(C)C(=O)C2(CC(C)(C)C2)NC(=O)[C@@H]2C[C@@H](C)CN2C(=O)[C@H](CCc2ccc(C(F)(F)F)c(OC)c2)NC(=O)CN(C)C(=O)[C@H](Cc2ccc(C)cc2)N2CC/C=C\C[C@@H](C2=O)N(C)C(=O)CN(C)C1=O` . Not satisfied

Now consider `CC[C@H](C)[C@@H]1NC(=O)[C@H](CC(C)C)N(C)C(=O)C[C@@H](C(=O)N2CCOCC2)N(C)C(=O)[C@H](C2CCCC2)N(C)C(=O)C2(CCCC2)NC(=O)[C@@H]2CC(=O)CN2C(=O)[C@H](CCc2cc(F)c(C(F)(F)F)c(F)c2)NC(=O)CN(C)C(=O)[C@H](Cc2ccc(C(F)(F)F)cc2)N2CCCC[C@@H](C2=O)N(C)C(=O)CN(C)C1=O` . Not satisfied

Now consider `CC[C@H](C)[C@@H]1NC(=O)[C@H](CC)N(C)C(=O)C[C@@H](C(=O)N(C)C)N(CC)C(=O)[C@H](C2CCCC2)N(C)C(=O)C2(CCC2)NC(=O)[C@@H]2CCCN2C(=O)[C@H](CCc2cc(F)c(C(F)(F)F)c(F)c2)NC(=O)CN(C)C(=O)[C@H](Cc2ccc(C(F)(F)F)cc2)N2CC/C=C\C[C@@H](C2=O)N(C)C(=O)CN(C)C1=O` . Not satisfied

Now consider `CCO[C@@H]1C[C@H]2C(=O)NC3(CC(C)(C)C3)C(=O)N(C)[C@@H](C3CCCC3)C(=O)N(C)[C@H](C(=O)N(C)C)CC(=O)N(C)[C@@H](CC3CCC3)C(=O)N[C@@H]([C@@H](C)CC)C(=O)N(C)CC(=O)N(C)[C@H]3C/C=C\CCN(C3=O)[C@@H](Cc3ccc(C(F)(F)F)cc3)C(=O)N(C)CC(=O)N[C@@H](CCc3cc(F)c(C(F)(F)F)c(F)c3)C(=O)N2C1` . Satisfied

----------
Assign IC50 to each entry below.
- Test system: human lung cancer strain NCI-H441
- Type: cell-based
- Description: A test compound was dispensed into a U-bottom 384-well plate as 40 nL serially diluted dimethyl sulfoxide solutions using a liquid handler Echo (LABCYTE). […] This cell suspension was dispensed in an amount of 40 µL per well into a plate containing the test compound, and cultured at 37°C in a 5% carbon dioxide gas incubator. Four days later, 20 µL of CellTiter-Glo (registered trademark) (Promega) was added to each well and […] was measured. […]
Where a SMILES comes first, the peptide text is derived from it. Bridges are numbered along the chain shown (N, C = ends). [ ]: non-standard residue; d: D form. The star is where a group is joined. hPhe(3,5-F2-4-CF3) = N[C@@H](CCc1cc(F)c(C(F)(F)F)c(F)c1)C(=O)O; NPrPhe(4-CF3) = CCCN[C@@H](Cc1ccc(C(F)(F)F)cc1)C(=O)O; NMeGly(cPent) = CN[C@H](C(=O)O)C1CCCC1; NMeD = CN[C@@H](CC(=O)O)C(=O)O; NMeL = CN[C@@H](CC(C)C)C(=O)O; Iva = CC[C@](C)(N)C(=O)O; Morpholide = C1CN(*)CCO1; Aze = O=C(O)[C@@H]1CCN1; Sar = CNCC(=O)O
Report the figure in nM without appending any unit label.

Any idea what its IC50 is? The compound is `CC[C@H](C)[C@@H]1NC(=O)[C@H](CC2CC2)N(C)C(=O)C[C@@H](C(=O)N2CCCC2)N(C)C(=O)[C@H](C2CCCC2)N(C)C(=O)C2(CCC2)NC(=O)[C@@H]2C[C@H](C)CN2C(=O)[C@H](CCc2cc(F)c(C(F)(F)F)c(F)c2)NC(=O)CN(C)C(=O)[C@H](Cc2ccc(C(F)(F)F)cc2)N2CC/C=C\C[C@@H](C2=O)N(C)C(=O)CN(C)C1=O` 34.5

Now consider `CCO[C@@H]1C[C@H]2C(=O)NC3(CC(C)(C)C3)C(=O)N(C)[C@@H](C3CCCC3)C(=O)N(C)[C@H](C(=O)N(C)C)CC(=O)N(C)[C@@H]([C@H](C)OC)C(=O)N[C@@H]([C@@H](C)CC)C(=O)N3CCC[C@H]3C(=O)N(C)[C@H]3C/C=C\CCN(C3=O)[C@@H](Cc3ccc(C)cc3)C(=O)N(C)CC(=O)N[C@@H](CCc3cc(F)c(C(F)(F)F)c(F)c3)C(=O)N2C1` . 49.6

Now consider CCCN1C(=O)[C@@H]2CCN2C(=O)CN(C)C(=O)[C@H]([C@@H](C)CC)NC(=O)[C@H](CC(C)C)N(C)C(=O)C[C@@H](C(=O)N2CCOCC2)N(C)C(=O)[C@H](C2CCCC2)N(C)C(=O)[C@](C)(CC)NC(=O)[C@@H]2CCCN2C(=O)[C@H](CCc2cc(F)c(C(F)(F)F)c(F)c2)NC(=O)CN(C)C(=O)[C@@H]1Cc1ccc(C(F)(F)F)cc1 [PP0790] ([NMeL]I[Sar][Aze][NPrPhe(4-CF3)][Sar][hPhe(3,5-F2-4-CF3)]P[Iva][NMeGly(cPent)][NMeD]-Morpholide; lactam N-11) . 28.8

----------
Assign Kd to each entry below.
- study-system: GDP-bound KRAS wild-type protein (Homo sapiens)
- Sequence (P01116 1-188 isoform P01116-2): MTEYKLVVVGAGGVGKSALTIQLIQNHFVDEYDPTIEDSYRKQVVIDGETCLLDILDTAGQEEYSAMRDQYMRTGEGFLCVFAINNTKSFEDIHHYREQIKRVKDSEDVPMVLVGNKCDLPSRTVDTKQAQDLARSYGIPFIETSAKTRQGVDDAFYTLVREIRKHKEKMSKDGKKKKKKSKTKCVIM
- assay-protocol: Binding to KRAS by surface plasmon resonance (SPR), dissociation constant KD
- condition-info: Single Cycle Kinetics, 1:1 binding model
Report the figure in nM without appending any unit label.

Any idea what its Kd is? The molecule is `CCOC[C@H]1C(=O)N[C@@H]([C@@H](C)CC)C(=O)N(C2CC2)CC(=O)N(C)[C@H]2C/C=C\CCN(C2=O)[C@@H](CC2CCC(F)(F)CC2)C(=O)N(C)CC(=O)N[C@@H](CCc2ccc(C(F)(F)F)c(OC)c2)C(=O)N2C[C@H](OCC)C[C@H]2C(=O)N(C)C2(CCC2)C(=O)N(C)[C@@H](C(CC)CC)C(=O)N(C)[C@H](C(=O)N(C)C)CC(=O)N1C` 3.2

Now consider `CCO[C@@H]1C[C@H]2C(=O)NC3(CCC3)C(=O)N(C)[C@@H](C3CCCC3)C(=O)N(C)[C@H](C(=O)N(C)C)CC(=O)N(C)[C@@H](CC3CCCC3)C(=O)N[C@@H]([C@@H](C)CC)C(=O)N(C)CC(=O)N(C)[C@H]3C/C=C\CCN(C3=O)[C@@H](Cc3ccc(C(F)(F)F)cc3)C(=O)N(C)CC(=O)N[C@@H](CCc3ccc4sccc4c3)C(=O)N2C1` . 0.44

----------
- Tested on: human lung cancer strain NCI-H441
- Type: cell-based
*1 amine or outer side, *2 acyl side, *3 side chain or, on linkers, in order; H or OH if unused. Where a SMILES comes first, the peptide text is derived from it. Bridges are numbered along the chain shown (N, C = ends). [ ]: non-standard residue; d: D form. hPhe(3,5-F2-4-CF3) = N[C@@H](CCc1cc(F)c(C(F)(F)F)c(F)c1)C(=O)O; hPhe(3-Cl-4-CF3) = N[C@@H](CCc1ccc(C(F)(F)F)c(Cl)c1)C(=O)O; NPrPhe(4-CF3) = CCCN[C@@H](Cc1ccc(C(F)(F)F)cc1)C(=O)O; X16 = O=C([C@@H](N[*:1])C1CC(F)(F)C1)[*:2]; NMeGly(cPent) = CN[C@H](C(=O)O)C1CCCC1; Pro(4,4-F2) = O=C(O)[C@@H]1CC(F)(F)CN1; NMeD = CN[C@@H](CC(=O)O)C(=O)O; NMeL = CN[C@@H](CC(C)C)C(=O)O; Ac5c = NC1(C(=O)O)CCCC1; Aze = O=C(O)[C@@H]1CCN1; Ac4c = NC1(C(=O)O)CCC1; Sar = CNCC(=O)O
readout-name: IC50 (µM)
Report the figure in µM without appending any unit label.

Any idea what its IC50 is? The compound is CCCN1C(=O)CN(C)C(=O)CN(C)C(=O)[C@H](C2CC(F)(F)C2)NC(=O)[C@H](CC(C)C)N(C)C(=O)C[C@@H](C(=O)N(C)C)N(C)C(=O)[C@H](C2CCCC2)N(C)C(=O)C2(CCCC2)NC(=O)[C@@H]2CCCN2C(=O)[C@H](CCc2cc(F)c(C(F)(F)F)c(F)c2)NC(=O)CN(C)C(=O)[C@@H]1Cc1ccc(C(F)(F)F)cc1 [PP0748] ([NMeL][X16][Sar][Sar][NPrPhe(4-CF3)][Sar][hPhe(3,5-F2-4-CF3)]P[Ac5c][NMeGly(cPent)][NMeD]-NMe2; lactam N-11) 0.0107

Now consider CCCN1C(=O)CN(C)C(=O)[C@@H]2CCN2C(=O)[C@H]([C@@H](C)CC)NC(=O)[C@H](CC(C)C)N(C)C(=O)C[C@@H](C(=O)N(C)C)N(C)C(=O)[C@H](C2CCCC2)N(C)C(=O)C2(CCC2)NC(=O)[C@@H]2CC(F)(F)CN2C(=O)[C@H](CCc2ccc(C(F)(F)F)c(Cl)c2)NC(=O)CN(C)C(=O)[C@@H]1Cc1ccc(C(F)(F)F)cc1 [PP0432] ([NMeL]I[Aze][Sar][NPrPhe(4-CF3)][Sar][hPhe(3-Cl-4-CF3)][Pro(4,4-F2)][Ac4c][NMeGly(cPent)][NMeD]-NMe2; lactam N-11) . 0.0107

Now consider `CCO[C@@H]1C[C@H]2C(=O)NC3(CC(C)(C)C3)C(=O)N(C)[C@@H](C3CCCC3)C(=O)N(C)[C@H](C(=O)N(C)C)CC(=O)N(C)[C@@H](CC)C(=O)N[C@@H]([C@@H](C)CC)C(=O)N(C)CC(=O)N(C)[C@H]3C/C=C\CCN(C3=O)[C@@H](Cc3ccc(Cl)cc3F)C(=O)N(C)CC(=O)N[C@@H](CCc3cc(F)c(C(F)(F)F)c(F)c3)C(=O)N2C1` . 0.0036

Now consider `CCC[C@H]1C(=O)N[C@@H]([C@@H](C)CC)C(=O)N[C@@H](C)C(=O)N(C)[C@H]2C/C=C\CCN(C2=O)[C@@H](Cc2ccc(C(F)(F)F)cc2)C(=O)N(C)CC(=O)N[C@@H](CCc2cc(F)c(C(F)(F)F)c(F)c2)C(=O)N2C[C@H](OCC)C[C@H]2C(=O)NC2(CC(C)(C)C2)C(=O)N(C)[C@@H](C2CCCC2)C(=O)N(C)[C@H](C(=O)N(C)C)CC(=O)N1C` . 0.0235

Now consider `CC[C@H](C)[C@@H]1NC(=O)[C@H](CC2CC2)N(C)C(=O)C[C@@H](C(=O)N(C)C)N(C)C(=O)[C@H](C2CCCC2)N(C)C(=O)C2(CCC2)N(C)C(=O)[C@@H]2C[C@@H](C)CN2C(=O)[C@H](CCc2cc(F)c(C(F)(F)F)c(F)c2)NC(=O)CN(C)C(=O)[C@H](Cc2ccc(C)cc2)N2CC/C=C\C[C@@H](C2=O)N(C)C(=O)[C@@H]2CCCN2C1=O` . 0.013

Now consider `CCO[C@@H]1C[C@H]2C(=O)NC3(CCC3)C(=O)N(C)[C@@H](C3CCCC3)C(=O)N(C)[C@H](C(=O)N(C)C)CC(=O)N(C)[C@@H](CC3CCCC3)C(=O)N[C@@H]([C@@H](C)CC)C(=O)N(C)CC(=O)N(C)[C@H]3C/C=C\CCN(C3=O)[C@@H](Cc3ccc(F)cc3)C(=O)N(C)CC(=O)N[C@@H](CCc3cc(F)c(C(F)(F)F)c(F)c3)C(=O)N2C1` . 0.0139

Now consider `CCC[C@H]1C(=O)N[C@@H]([C@@H](C)CC)C(=O)N(C2CC2)CC(=O)N(C)[C@H]2C/C=C\CCN(C2=O)[C@@H](CC2CCCCC2)C(=O)N(C)CC(=O)N[C@@H](CCc2ccc(C(F)(F)F)c(OC)c2)C(=O)N2C[C@H](OCC)C[C@H]2C(=O)N(C)C2(CCC2)C(=O)N(C)[C@@H](C2CCCC2)C(=O)N(C)[C@H](C(=O)N(C)C)CC(=O)N1C` . 0.0449

Now consider `CC[C@H](C)[C@@H]1NC(=O)[C@H](COC)N(C)C(=O)C[C@@H](C(=O)N2CCOCC2)N(C)C(=O)[C@H](C2CCCC2)N(C)C(=O)C2(CCCC2)NC(=O)[C@@H]2CCCN2C(=O)[C@H](CCc2ccc(C(F)(F)F)c(Cl)c2)NC(=O)CN(C)C(=O)[C@H](Cc2ccc(F)cc2)N2CCCCC[C@@H](C2=O)N(C)C(=O)CN(C)C1=O` . 0.101

Now consider `CCO[C@@H]1C[C@H]2C(=O)NC3(CC(C)(C)C3)C(=O)N(C)[C@@H](CC3CCC3)C(=O)N(C)[C@H](C(=O)N(C)C)CC(=O)N(C)[C@@H](COC)C(=O)N[C@@H]([C@@H](C)CC)C(=O)N(C3CC3)CC(=O)N(C)[C@H]3C/C=C\CCN(C3=O)[C@@H](Cc3ccc(C(F)(F)F)cc3)C(=O)N(C)CC(=O)N[C@@H](CCc3cc(F)c(C(F)(F)F)c(F)c3)C(=O)N2C1` . 0.133

Now consider `CCCN1C(=O)CN(C)C(=O)CN(C)C(=O)[C@H]([C@@H](C)CC)NC(=O)[C@@H]2CCCCCCOc3ccc(cc3)C[C@H]1C(=O)N(C)CC(=O)N[C@@H](CCc1cc(F)c(C(F)(F)F)c(F)c1)C(=O)N1C[C@H](OCC)C[C@H]1C(=O)NC1(CCCC1)C(=O)N(C)[C@@H](C1CCCC1)C(=O)N(C)[C@H](C(=O)N(C)C)CC(=O)N2C` . 0.0031
